This listing pairs compounds with measured IC50.
EXPERIMENTAL_TARGET: Cdc7/ASK (Homo sapiens, UniProt O00311)
Sequence (O00311 whole entry): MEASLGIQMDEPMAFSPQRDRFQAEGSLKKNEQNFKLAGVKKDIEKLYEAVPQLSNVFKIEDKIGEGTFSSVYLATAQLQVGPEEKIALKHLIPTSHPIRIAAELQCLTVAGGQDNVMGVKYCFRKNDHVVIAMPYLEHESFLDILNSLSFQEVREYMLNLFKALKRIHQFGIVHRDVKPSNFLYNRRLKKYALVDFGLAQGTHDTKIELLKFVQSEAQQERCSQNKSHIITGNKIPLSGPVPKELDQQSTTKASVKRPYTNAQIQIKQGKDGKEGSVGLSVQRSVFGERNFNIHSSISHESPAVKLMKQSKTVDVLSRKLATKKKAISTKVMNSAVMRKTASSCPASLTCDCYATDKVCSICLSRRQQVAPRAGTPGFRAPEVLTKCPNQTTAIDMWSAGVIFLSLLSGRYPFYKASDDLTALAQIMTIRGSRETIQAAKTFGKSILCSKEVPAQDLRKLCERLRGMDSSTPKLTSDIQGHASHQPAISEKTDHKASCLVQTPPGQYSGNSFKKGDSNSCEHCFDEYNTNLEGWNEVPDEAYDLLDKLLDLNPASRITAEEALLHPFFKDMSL
Sequence (Q9UBU7 whole entry partner): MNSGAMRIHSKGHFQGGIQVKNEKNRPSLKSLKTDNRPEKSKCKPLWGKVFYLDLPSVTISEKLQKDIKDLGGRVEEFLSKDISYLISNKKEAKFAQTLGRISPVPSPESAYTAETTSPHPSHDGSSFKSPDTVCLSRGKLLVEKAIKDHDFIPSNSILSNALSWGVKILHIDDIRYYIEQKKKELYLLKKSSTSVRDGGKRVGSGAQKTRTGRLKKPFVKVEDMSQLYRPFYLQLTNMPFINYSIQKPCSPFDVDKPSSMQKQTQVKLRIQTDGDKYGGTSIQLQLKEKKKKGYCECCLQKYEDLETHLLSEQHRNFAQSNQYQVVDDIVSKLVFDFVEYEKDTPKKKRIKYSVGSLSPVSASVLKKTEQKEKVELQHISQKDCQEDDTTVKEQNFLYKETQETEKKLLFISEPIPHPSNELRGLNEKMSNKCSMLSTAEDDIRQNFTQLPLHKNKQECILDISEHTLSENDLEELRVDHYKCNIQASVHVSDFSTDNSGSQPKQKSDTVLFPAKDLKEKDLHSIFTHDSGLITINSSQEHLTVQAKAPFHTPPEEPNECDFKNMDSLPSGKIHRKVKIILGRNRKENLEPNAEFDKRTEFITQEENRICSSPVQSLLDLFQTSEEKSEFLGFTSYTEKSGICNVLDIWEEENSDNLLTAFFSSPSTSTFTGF
ASSAY_PROCEDURE: Cdc7 Biochemical Assay Method 4: off-chip mobility shift assay (Carna Biosciences)
Design: purchased Carna Biosciences; host or cells: baculovirus expression system
CONDITIONS_USED: off-chip MSA, MCM2 peptide, 5 hours; read-out: Biochemical Method 4 (pIC50) (converted)
Counter-ions that a name gives are not always drawn.
The reply should be a number in nM, with the unit left off.

O=c1[nH]c(-c2ccncc2)nc(N2CCNCC2C(F)F)c1Cl (centres unmarked) [Compound 391]    35.5
Cl.O=c1[nH]c(-c2ccnc(F)c2)nc(N2CCNCC2C(F)(F)F)c1Cl (single isomer, unassigned) [Compound 383]    4.47
Cl.O=c1[nH]c(-c2ccnc(F)c2)nc(N2CCNCC(C(F)(F)F)C2)c1Cl (centres unmarked) [Compound 386]    5.62
O=c1[nH]c(-c2ccncc2)nc(N2CCNCC(F)(F)C2)c1Cl [Compound 374]    5.75
O=c1[nH]c(-c2ccnc(F)c2)nc(N2CCNCC(F)(F)C2)c1Cl [Compound 312, hydrochloride]    3.72
O=c1[nH]c(-c2ccnc(F)c2)nc(N2CCNCC(F)C2)c1Cl (single isomer, unassigned) [Compound 379, hydrochloride]    7.94

Query: State the recorded IC50 for this entry: C[C@@H]1CNCCN1c1nc(-c2ccnc(F)c2)[nH]c(=O)c1Cl [Compound 323]
Response: 3.09

Query: State the recorded IC50 for this entry: O=c1[nH]c(-c2ccnc(F)c2)nc(N2CCNCC2C(F)F)c1Cl (centres unmarked) [Compound 376]
Response: 5.5
